Tested on: SNB-75 CNS
Assay: NCI tumour cell line growth inhibition, 48 h
property_measured: TGI

Example results:
O=c1c2cccnc2ncn1CCCN1CCOCC1 = > 100 µM
O=C1C=C(Nc2nc(C(=O)O)cc(=O)[nH]2)c2ccccc2C1=O = > 100 µM

// moving on: another record for TGI
// TGI lookup, key: C[C@@]12CCC[C@@](C)(C(=O)O)C1CC[C@@]13CC(=O)[C@@](CO)(CCC12)C3 (stereo partly drawn)
> 100 µM

###

Reported TGI is given for each of the following molecules.
System: SW-620 colon
Experiment: NCI tumour cell line growth inhibition, 48 h

Example results:
CC(C)(C)C(=O)OCC(COC(=O)C(C)(C)C)[N+](=O)[O-] = > 100 µM
COc1ccc(CCC2NCCc3cc(OC)c(OC)cc32)cc1 (centres undefined) = > 100 µM
C=C1C(=O)O[C@H]2[C@H]1CC/C(COC(=O)C(=O)c1cn(C)c3ccc(OC)cc13)=C\CC[C@@]1(C)O[C@@H]21 = 14.5 µM
O=C(NC(CO)CO)c1ccc2cc(C(=O)N3CC(CCl)c4ccc([N+](=O)[O-])cc43)[nH]c2c1 (centres undefined) = > 100 µM
Cc1ccc(Nc2ccc(Nc3ccc(C)cc3S(=O)(=O)O)c3c2C(=O)c2ccccc2C3=O)c(S(=O)(=O)O)c1 = > 100 µM

// TGI lookup, key: `CC1=C(c2cc(C(=O)Nc3cccc(C(F)(F)F)c3)nc(NC#N)n2)Sc2ccccc2N1`
> 100 µM

Same read-out for `O=C(/C=C/c1ccc(Cl)cc1)c1ccncc1` ?
> 100 µM

Same read-out for `O=C(Nc1cccc(C(F)(F)F)c1)c1cc(-c2ccccc2)nc(=S)[nH]1` ?
> 100 µM

Same read-out for O=C1C(CN2CCCC2)CCCC1CN1CCCC1 (centres undefined) ?
0.32 µM
